TARGET: PE-labeled human PD-L1-Ig binding to Jurkat cell line over-expressing human PD-1 (Jurkat-PD-1) (Homo sapiens, UniProt Q15116)
Construct: expressed in transfected cells; host or cells: Jurkat
Sequence (Q15116 25-288): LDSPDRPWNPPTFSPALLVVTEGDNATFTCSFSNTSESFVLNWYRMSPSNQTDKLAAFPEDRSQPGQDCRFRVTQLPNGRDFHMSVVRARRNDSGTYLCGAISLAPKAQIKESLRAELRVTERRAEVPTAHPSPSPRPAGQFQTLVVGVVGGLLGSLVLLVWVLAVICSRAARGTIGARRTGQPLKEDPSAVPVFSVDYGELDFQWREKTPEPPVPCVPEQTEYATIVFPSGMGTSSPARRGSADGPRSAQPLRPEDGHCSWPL
METHOD_NOTES: Jurkat-PD-1 Cell Binding High-Content Screening Assay (CBA): Method 1
REPORTED_CONDITIONS: Jurkat-hPD-1 cells, PE-labeled PD-L1-Ig 20 nM final; read-out: Jurkat HPDL1 PD1 IC50 (uM) (Method 1)
Bridge positions count the residues as written; N and C are the ends. Square brackets hold non-standard residues; d marks the D form. Peptide text beside a SMILES is read from it. Bip = N[C@@H](Cc1ccc(-c2ccccc2)cc1)C(=O)O; Phe(2-Br) = N[C@@H](Cc1ccccc1Br)C(=O)O; Phe(3-Me) = Cc1cccc(C[C@H](N)C(=O)O)c1; 3Pal = N[C@@H](Cc1cccnc1)C(=O)O; 4Pal = N[C@@H](Cc1ccncc1)C(=O)O; Cit = NC(=O)NCCC[C@H](N)C(=O)O; NMeA = CN[C@@H](C)C(=O)O; Nle = CCCC[C@H](N)C(=O)O; Dab = NCC[C@H](N)C(=O)O; Dap = NC[C@H](N)C(=O)O

COMPOUND	IC50 [µM]
CCCC[C@@H]1NC(=O)[C@H](CC(N)=O)NC(=O)[C@@H](C)NC(=O)[C@H](C)N(C)C(=O)[C@H](C(C)C)NC(=O)[C@H](Cc2ccc(-c3ccccc3)cc2)NC(=O)[C@H](CC(C)C)NC(=O)[C@H](Cc2c[nH]c3ccccc23)NC(=O)[C@H](CC(=O)O)NC(=O)[C@H](Cc2ccc(O)cc2)NC(=O)[C@H](Cc2ccccc2)NC(=O)CSC[C@@H](C(=O)N[C@@H](C)C(N)=O)NC(=O)[C@H]([C@@H](C)O)NC(=O)[C@H](CCCCN)NC1=O [Compound 1790] ({CH2CO}-FYDWL[Bip]V[NMeA][dA]N[Nle]KTCA-NH2; thioether N-14)	0.13
Cc1cccc(C[C@@H]2NC(=O)[C@H](Cc3cccnc3)NC(=O)CSC[C@@H](C(=O)NCC(N)=O)NC(=O)[C@H](CO)NC(=O)[C@H](C(C)C)NC(=O)[C@H](CC(C)C)NC(=O)[C@H](CC(N)=O)NC(=O)[C@@H](CC(C)C)NC(=O)[C@H](C)N(C)C(=O)[C@H](C(C)C)NC(=O)[C@H](Cc3ccc(-c4ccccc4)cc3)NC(=O)[C@H](CC(C)C)NC(=O)[C@H](Cc3c[nH]c4ccccc34)NC(=O)[C@H](CC(=O)O)NC2=O)c1 [Compound 1520] ({CH2CO}-[3Pal][Phe(3-Me)]DWL[Bip]V[NMeA][dL]NLVSCG-NH2; thioether N-14)	0.01
CC(C)C[C@@H]1NC(=O)[C@H](Cc2c[nH]c3ccccc23)NC(=O)[C@H](CC(=O)O)NC(=O)[C@H](Cc2ccc(O)cc2)NC(=O)[C@H](Cc2ccccc2)NC(=O)CSC[C@@H](C(=O)NCC(N)=O)NC(=O)[C@H]([C@@H](C)O)NC(=O)[C@H](C(C)C)NC(=O)[C@H](CC(C)C)NC(=O)[C@H](CC(N)=O)NC(=O)[C@@H](CC(C)C)NC(=O)[C@H](C)N(C)C(=O)[C@H](C(C)C)NC(=O)[C@H](Cc2ccc(-c3ccccc3)cc2)NC1=O [Compound 1466] ({CH2CO}-FYDWL[Bip]V[NMeA][dL]NLVTCG-NH2; thioether N-14)	0.02
CC(C)C[C@@H]1NC(=O)[C@H](CCCNC(=N)N)NC(=O)[C@@H](Cc2ccccc2)NC(=O)[C@H](C)N(C)C(=O)[C@H](CCCNC(=N)N)NC(=O)[C@H](Cc2ccc(-c3ccccc3)cc2)NC(=O)[C@H](C(C)C)NC(=O)[C@H](Cc2c[nH]c3ccccc23)NC(=O)[C@H](CC(=O)O)NC(=O)[C@H](Cc2ccc(O)cc2)NC(=O)[C@H](Cc2cnc[nH]2)NC(=O)CSC[C@@H](C(=O)NCC(N)=O)NC(=O)[C@H](CO)NC(=O)[C@H](C(C)C)NC1=O [Compound 1031] ({CH2CO}-HYDWV[Bip]R[NMeA][dF]RLVSCG-NH2; thioether N-14)	0.09
CC(C)C[C@@H]1NC(=O)[C@H](CCN)NC(=O)[C@@H](CC(C)C)NC(=O)[C@H](C)N(C)C(=O)[C@H](CCCNC(N)=O)NC(=O)[C@H](Cc2ccc(-c3ccccc3)cc2)NC(=O)[C@H](C(C)C)NC(=O)[C@H](Cc2c[nH]c3ccccc23)NC(=O)[C@H](CC(=O)O)NC(=O)[C@H](Cc2ccc(O)cc2)NC(=O)[C@H](CN)NC(=O)CSC[C@@H](C(=O)N[C@@H](C)C(N)=O)NC(=O)[C@H]([C@@H](C)O)NC(=O)[C@H](C(C)C)NC1=O [Compound 1345] ({CH2CO}-[Dap]YDWV[Bip][Cit][NMeA][dL][Dab]LVTCA-NH2; thioether N-14)	0.01
CC(C)C[C@@H]1NC(=O)[C@H](Cc2c[nH]c3ccccc23)NC(=O)[C@H](CC(=O)O)NC(=O)[C@H](Cc2ccc(O)cc2)NC(=O)[C@H](Cc2ccccc2)NC(=O)CSC[C@@H](C(=O)N[C@@H](C)C(N)=O)NC(=O)[C@H](CO)NC(=O)[C@H](C(C)C)NC(=O)[C@H](CC(C)C)NC(=O)[C@H](CC(N)=O)NC(=O)[C@@H](C(C)C)NC(=O)[C@H](C)N(C)C(=O)[C@H](C(C)C)NC(=O)[C@H](Cc2ccc(-c3ccccc3)cc2)NC1=O [Compound 1771] ({CH2CO}-FYDWL[Bip]V[NMeA][dV]NLVSCA-NH2; thioether N-14)	0.04
CC(C)C[C@@H]1NC(=O)[C@H](Cc2c[nH]c3ccccc23)NC(=O)[C@H](CC(=O)O)NC(=O)[C@H](Cc2ccccc2Br)NC(=O)[C@H](Cc2ccccc2)NC(=O)CSC[C@@H](C(=O)N[C@@H](C)C(N)=O)NC(=O)[C@H](CO)NC(=O)[C@H](C(C)C)NC(=O)[C@H](CC(C)C)NC(=O)[C@H](CC(N)=O)NC(=O)[C@@H](C)NC(=O)[C@H](C)N(C)C(=O)[C@H](C(C)C)NC(=O)[C@H](Cc2ccc(-c3ccccc3)cc2)NC1=O [Compound 1823] ({CH2CO}-F[Phe(2-Br)]DWL[Bip]V[NMeA][dA]NLVSCA-NH2; thioether N-14)	0.6
CC[C@H](C)[C@@H]1NC(=O)[C@H](Cc2ccc(-c3ccccc3)cc2)NC(=O)[C@H](C(C)C)NC(=O)[C@H](Cc2c[nH]c3ccccc23)NC(=O)[C@H](CC(=O)O)NC(=O)[C@H](Cc2ccc(O)cc2)NC(=O)[C@H](Cc2ccncc2)NC(=O)CSC[C@@H](C(N)=O)NC(=O)[C@H]([C@@H](C)O)NC(=O)[C@H](C(C)C)NC(=O)[C@H](CC(C)C)NC(=O)[C@H](CCN)NC(=O)[C@@H](CC(C)C)NC(=O)[C@H](C)N(C)C1=O [Compound 1632] ({CH2CO}-[4Pal]YDWV[Bip]I[NMeA][dL][Dab]LVTC-NH2; thioether N-14)	0.13
